Target: CDK6/cyclin D3 (Homo sapiens)
Sequence (P30281 whole entry): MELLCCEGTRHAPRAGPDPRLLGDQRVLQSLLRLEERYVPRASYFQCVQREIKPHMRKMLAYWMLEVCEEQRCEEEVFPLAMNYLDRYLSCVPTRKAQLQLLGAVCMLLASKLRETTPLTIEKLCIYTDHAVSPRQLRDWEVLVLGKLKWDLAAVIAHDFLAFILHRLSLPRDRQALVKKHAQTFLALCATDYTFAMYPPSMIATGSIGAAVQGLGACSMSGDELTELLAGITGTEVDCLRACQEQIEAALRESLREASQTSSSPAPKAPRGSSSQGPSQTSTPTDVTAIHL
Sequence (Q00534 whole entry): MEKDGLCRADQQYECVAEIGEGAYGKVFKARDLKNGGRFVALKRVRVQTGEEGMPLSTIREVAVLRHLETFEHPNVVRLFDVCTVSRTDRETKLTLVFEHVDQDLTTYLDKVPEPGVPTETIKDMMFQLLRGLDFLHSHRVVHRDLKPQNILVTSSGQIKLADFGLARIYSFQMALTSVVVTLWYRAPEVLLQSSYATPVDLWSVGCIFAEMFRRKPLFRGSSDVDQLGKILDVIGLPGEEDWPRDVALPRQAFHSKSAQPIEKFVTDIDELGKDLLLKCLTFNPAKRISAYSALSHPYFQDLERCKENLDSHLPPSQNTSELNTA
Test: Inhibition of recombinant human CDK6/cyclin D3 after 40 mins by ADP-Glo reagent based luminescence assay

cpd-smiles: COc1ccc(C(=O)NC2CCN(c3nccc(Nc4ccc(F)cc4)n3)CC2)cc1
IC50: 54.3 to 73.7 nM

---

Biological target: Cyclin-dependent kinase 2/cyclin E1 (Homo sapiens, UniProt P24941)
Assay: Inhibition of recombinant human CDK2/cyclin E after 40 mins by ADP-Glo reagent based luminescence assay
Format: protein-complex assay
pIC50: −log10 of the molar value.
Parameter pIC50: see the listing below.

cpd-smiles: Cc1ccc(C(=O)NC2CCN(c3nccc(Nc4ccc(F)cc4)n3)CC2)cc1
pIC50: 6.56

cpd-smiles: O=C(NC1CCN(c2nccc(Nc3ccc(F)cc3)n2)CC1)c1ccccc1F
pIC50: 6.62

cpd-smiles: COc1ccc(Nc2ccnc(N3CCC(NC(=O)c4ccc(OC)cc4)CC3)n2)cc1
pIC50: 6.56

cpd-smiles: Cc1cccc(C(=O)NC2CCN(c3nccc(Nc4ccc(F)cc4)n3)CC2)c1
pIC50: 6.41

cpd-smiles: Cc1ccccc1Nc1ccnc(N2CCC(NC(=O)c3ccccc3F)CC2)n1
pIC50: 6.40

cpd-smiles: Cc1cc(Nc2ccc(F)cc2)nc(N2CCC(NC(=O)c3ccc(F)cc3)CC2)n1
pIC50: 6.82

cpd-smiles: Cc1cc(Nc2ccc(F)cc2)nc(N2CCC(NC(=O)c3cccc(Cl)c3)CC2)n1
pIC50: 6.54

cpd-smiles: COc1ccc(Nc2ccnc(N3CCC(NC(=O)c4cccc(Cl)c4)CC3)n2)cc1
pIC50: 6.50

cpd-smiles: Cc1cccc(C(=O)NC2CCN(c3nc(C)cc(Nc4ccc(F)cc4)n3)CC2)c1
pIC50: 6.42

cpd-smiles: Cc1ccccc1Nc1ccnc(N2CCC(NC(=O)c3cccc(Cl)c3)CC2)n1
pIC50: 6.30

cpd-smiles: O=C(NC1CCN(c2nccc(Nc3ccc(F)cc3)n2)CC1)c1ccc(F)cc1
pIC50: 6.82

cpd-smiles: COc1ccc(Nc2ccnc(N3CCC(NC(=O)c4ccccc4F)CC3)n2)cc1
pIC50: 6.55

cpd-smiles: Cc1cc(Nc2ccc(F)cc2)nc(N2CCC(NC(=O)c3ccccc3F)CC2)n1
pIC50: 6.69

cpd-smiles: COc1ccc(Nc2ccnc(N3CCC(NC(=O)c4ccc(C)cc4)CC3)n2)cc1
pIC50: 6.42

cpd-smiles: COc1ccc(C(=O)NC2CCN(c3nc(C)cc(Nc4ccc(F)cc4)n3)CC2)cc1
pIC50: 7.27

cpd-smiles: O=C(NC1CCN(c2nccc(Nc3ccc(F)cc3)n2)CC1)c1cccc(Cl)c1
pIC50: 6.69

cpd-smiles: COc1ccc(C(=O)NC2CCN(c3nccc(Nc4ccccc4C)n3)CC2)cc1
pIC50: 6.54

cpd-smiles: Cc1ccc(C(=O)NC2CCN(c3nccc(Nc4ccccc4C)n3)CC2)cc1
pIC50: 6.25
